- test summary: Bioavailability in SL dosed human
- Format: ADME, organism-based
- condition context: in vivo
assay endpoint: bioavailability (%)
Answer format: numeric, % implied, no suffix.

// query # lookup: bioavailability of CNC1(c2ccccc2Cl)CCCCC1=O (stereo unspecified)
// result 24

====

- assay system: Glutamate NMDA receptor
- test summary: Displacement of [3H]-MK801 from NMDA receptor in Sprague-Dawley rat cortex incubated for 2 hrs in presence of Mg2+ by scintillation counting method
- Type: tissue-based
assay endpoint: Ki

// query # lookup: Ki of CNC1(c2ccccc2Cl)CCCCC1=O (stereo unspecified) [KETAMINE]
// result 0.18 µM

Measured values drawn from ChEMBL document CHEMBL4680282 for this set.
